Assay: inhibitors of the yeast RAM network, pilot screen, dse1pr::URA3 reporter, 5-FOA selection (AID 869);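 further: 0% = DMSO wells with no growth and 100% = 10 µM 1-NA-PP1 with full growth; RAM network block rescues cells from 5-FOA so hits raise OD615 growth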
Settings: S. cerevisiae dse1pr::URA3 5-FOA growth, OD615, 2 d; at 10 µM; stronger effect = higher value; strain carries analog-sensitive mutant Cbk1 kinase
reported_property: inhibition (%)
Output spec: scalar in %, unitless text.

Ask | Report inhibition for COc1cccc2c(=O)c(C/C=C(/C)Cl)c(C)[nH]c12 please.
Reply | 0.075

* * *

Test: reducers of endogenous Her2 protein level, primary screen, SKBR3 breast tumor cells, AlphaScreen, ATP viability (AID 461);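 further: percent of carrier control wells set as 100% viability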
Settings: 18-24 h, measured here: SKBR3 viability, ATP luminescence, at 10 µM
reported_property: viability (%)
Write down the numeric answer in % and omit the unit.

These recorded examples may help you get a feel for the data.
compound	unit_annotation	viability
Cc1ccc(CSC2=NCCN2C(=O)C2CC2)cc1	%	100
C[C@]12CCC(=O)C=C1CC[C@@H]1[C@@H]2[C@@H](O)C[C@@]2(C)[C@H]1CC[C@]2(O)C(=O)COC(=O)CCC(=O)O	%	95

Ask | Reported viability, compound c1ccc(-c2nnc(-c3ccco3)n2-c2ccccc2)cc1 : ____
Reply | 81.5

Ask | Another compound to check: Cc1nc2nc(Cc3ccccc3)[nH]n2c(=O)c1Cc1ccccc1
Reply | 117

Ask | Also Cc1cccc(N2CCN(C(=O)Cn3ccc4ccccc4c3=O)CC2)c1C , if possible.
Reply | 90.5

Ask | Also CCOC(=O)N1CCN(CC(=O)c2c(C)[nH]c3ccccc23)CC1 , if possible.
Reply | 94

Ask | Now try Cc1ccccc1C(OCCN(C)C)c1ccccc1 (centres undefined) .
Reply | 93

* * *

Recorded measurements of viability, one per entry
Test: growth inhibitors of H69AR lung tumor, primary screen, human, duplicate replicates (AID 580);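 further: 100% = mean luminescence of untreated wells and 0% = no signal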
Settings: H69AR lung tumor cells viability, ATP luminescence, 72 h; at 10 µM; stronger effect = lower value
The response must be a number in % with no trailing unit.

compound	unit_annotation	viability
COC(=O)N1CC(c2ccccc2)CC1=O (stereo unspecified)	%	100
Cc1nnc(SCc2nc3ccccc3s2)n1-c1ccccc1	%	76
CN(C)c1ccc(CNCCC2(O)CCOC(C)(C)C2)cc1 (stereo unspecified)	%	102
COCCCn1c2nc3ccccc3nc2c2c(=O)n(-c3ccccc3OC)cnc21	%	73.7
C=COC(=O)CSc1snc(SCC(=O)OC)c1C#N	%	98.9

Ask | Quick one: viability for Cc1[nH]c(=O)[nH]c(=O)c1S(=O)(=O)N1c2ccc(F)cc2CCC1C (stereo unspecified) ?
Reply | 95.7

* * *

Measured viability, listed per entry.
Assay: growth suppression of beta-catenin knockout HCT116, pilot screen, human colon tumor cells (AID 823);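 further: 0% = wells killed by 20 µM Hyamine and 100% = untreated DMSO cell wells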
Settings: CellTiter-Glo, 60 h, at 10 µM, stronger effect = lower value
Inconclusive results are not listed.
All answers are understood in %, so give the number only.

Solved cases below.
compound	viability (%)
CCSC1=N/C(=C\c2ccc(C(=O)O)cc2)C(=O)S1	95.4
Cc1ccc(N2Cc3ccccc3OC(C)C2=O)cc1 (stereo unspecified)	90.3
Cn1c(SCc2nc3ccccc3[nH]2)nnc1-c1cccnc1	95.1
CCCCCn1c(SCCOCC)nc2c1c(=O)[nH]c(=O)n2C	96.2
CC(C)Cn1c(CN2C(=O)c3ccccc3C2=O)nc2ccccc2c1=O	98.4

Ask | Quick one: viability for CC(C)Sc1nc(SCC(=O)NCc2ccco2)c2c3c(sc2n1)COC(C)(C)C3 ?
Reply | 83.2

Ask | Try this compound too: COc1ccc(C2C(C(=O)N3CC(C)CC(C)C3)c3ccccc3C(=O)N2C)cc1 (stereo unspecified)
Reply | 96.7

Ask | Then O=C(NCc1ccccn1)C1CC(=O)N(C2CCCC2)C1 (stereo unspecified) ?
Reply | 103

Ask | Now the same for CCN(CC)S(=O)(=O)c1ccc(C(=O)C(C#N)c2ccccn2)cc1 (stereo unspecified)
Reply | 95.3

Ask | One more compound: O=C(Nc1nnc(-c2ccccc2)o1)Nc1ccccc1Cl
Reply | 104

Ask | Can you handle Cc1ccc(Cc2cnc(N)s2)o1 next?
Reply | 75.9
